# System: HL-60
# Experiment: Cytotoxicity against human HL60 cells incubated for 48 hrs by MTT assay
# Format: functional, cell-based
# Experimental conditions: HL-60, 48 h
pIC50: −log10 of the molar value.
Measured pIC50 of individual entries
Property label: pIC50

{"Line notation": "O=C(O)c1cc2c3ccccc3nc-2c[nH]1", "Property label": "pIC50", "Modifier": "=", "Observed value": 4.12}
{"Line notation": "CCOC(=O)c1cc2c3ccccc3n(Cc3cccnc3)c2cn1", "Property label": "pIC50", "Modifier": "<", "Observed value": 4.00}
{"Line notation": "OCc1cc2c3ccccc3nc-2c[nH]1", "Property label": "pIC50", "Modifier": "<", "Observed value": 4.00}
{"Line notation": "COc1ccccc1Cn1c2ccccc2c2cc(C(=O)O)ncc21", "Property label": "pIC50", "Modifier": "=", "Observed value": 5.40}
{"Line notation": "CCOC(=O)c1cc2c3ccccc3n(Cc3ccccn3)c2cn1", "Property label": "pIC50", "Modifier": "<", "Observed value": 4.00}
{"Line notation": "O=C(O)c1cc2c3ccccc3n(Cc3ccccc3)c2cn1", "Property label": "pIC50", "Modifier": "=", "Observed value": 5.30}
{"Line notation": "CCOC(=O)c1cc2c3ccccc3n(Cc3ccc(OC)cc3)c2cn1", "Property label": "pIC50", "Modifier": "=", "Observed value": 4.41}
{"Line notation": "CCOC(=O)c1cc2c3ccccc3n(Cc3ccccc3OC)c2cn1", "Property label": "pIC50", "Modifier": "=", "Observed value": 5.41}
{"Line notation": "CCOC(=O)c1cc2c(cn1)[nH]c1ccccc12", "Property label": "pIC50", "Modifier": "<", "Observed value": 4.00}
{"Line notation": "CCOC(=O)c1cc2c3ccccc3n(Cc3ccccc3)c2cn1", "Property label": "pIC50", "Modifier": "<", "Observed value": 4.00}
{"Line notation": "O=C(O)c1cc2c3ccccc3n(Cc3ccc(Cl)cc3)c2cn1", "Property label": "pIC50", "Modifier": "=", "Observed value": 5.41}
{"Line notation": "CCOC(=O)c1cc2c3ccccc3n(Cc3cc(OC)cc(OC)c3)c2cn1", "Property label": "pIC50", "Modifier": "<", "Observed value": 4.00}

---

# Test system: HL-60
# Experiment: Cytotoxicity against human HL60 cells incubated for 48 hrs by MTT assay
# Assay type: functional, cell-based
# Experimental conditions: HL-60, 48 h
Measured IC50 of individual entries
Property label: IC50

{"Line notation": "CCOC(=O)c1cc2c3ccccc3n(Cc3ccc(Cl)cc3)c2cn1", "Tested target": "HL-60", "Observed value": "> 100 µM"}
{"Line notation": "CCOC(=O)c1cc2c3ccccc3n(Cc3cc(OC)c(OC)c(OC)c3)c2cn1", "Tested target": "HL-60", "Observed value": "21.9 µM"}
{"Line notation": "CCOC(=O)c1cc2c3ccccc3n(Cc3ccc(F)cc3)c2cn1", "Tested target": "HL-60", "Observed value": "> 100 µM"}

---

# Experiment: Cytotoxicity against human 2774 cells incubated for 48 hrs by MTT assay
# Format: functional, cell-based
Measured IC50 of individual entries
Property label: IC50

{"Line notation": "OCc1cc2c3ccccc3nc-2c[nH]1", "Observed value": "> 100 µM"}
{"Line notation": "CCOC(=O)c1cc2c3ccccc3n(Cc3cccc(OC)c3)c2cn1", "Observed value": "> 100 µM"}
{"Line notation": "CCOC(=O)c1cc2c3ccccc3n(Cc3ccc(Cl)cc3)c2cn1", "Observed value": "16.4 µM"}
{"Line notation": "COc1ccccc1Cn1c2ccccc2c2cc(C(=O)O)ncc21", "Observed value": "12.6 µM"}
{"Line notation": "CCOC(=O)c1cc2c3ccccc3n(Cc3ccc(OC)cc3)c2cn1", "Observed value": "> 100 µM"}
{"Line notation": "CCOC(=O)c1cc2c3ccccc3n(Cc3ccccc3OC)c2cn1", "Observed value": "> 100 µM"}
{"Line notation": "O=C(O)c1cc2c3ccccc3n(Cc3ccc(F)cc3)c2cn1", "Observed value": "23.5 µM"}
{"Line notation": "CCOC(=O)c1cc2c3ccccc3n(Cc3cc(OC)c(OC)c(OC)c3)c2cn1", "Observed value": "> 100 µM"}
{"Line notation": "CCOC(=O)c1cc2c(cn1)[nH]c1ccccc12", "Observed value": "> 100 µM"}

---

Measured IC50 of individual entries
# Experiment: Cytotoxicity against human H460 cells incubated for 48 hrs by MTT assay
# Type: functional, cell-based
# Experimental conditions: NCI-H460, 48 h

{"Molecule": "CCOC(=O)c1cc2c3ccccc3n(Cc3ccc(F)cc3)c2cn1", "IC50": "> 100 µM"}
{"Molecule": "OCc1cc2c3ccccc3nc-2c[nH]1", "IC50": "> 100 µM"}
{"Molecule": "CCOC(=O)c1cc2c3ccccc3n(Cc3ccccc3OC)c2cn1", "IC50": "> 100 µM"}
{"Molecule": "CCOC(=O)c1cc2c3ccccc3n(Cc3cc(OC)c(OC)c(OC)c3)c2cn1", "IC50": "> 100 µM"}
{"Molecule": "CCOC(=O)c1cc2c3ccccc3n(Cc3cccnc3)c2cn1", "IC50": "> 100 µM"}
{"Molecule": "CCOC(=O)c1cc2c(cn1)[nH]c1ccccc12", "IC50": "> 100 µM"}
{"Molecule": "CCOC(=O)c1cc2c3ccccc3n(Cc3ccc(OC)cc3)c2cn1", "IC50": "50 µM"}
{"Molecule": "CCOC(=O)c1cc2c3ccccc3n(Cc3ccccn3)c2cn1", "IC50": "> 100 µM"}
{"Molecule": "O=C(O)c1cc2c3ccccc3n(Cc3ccccc3)c2cn1", "IC50": "18.5 µM"}
{"Molecule": "O=C(O)c1cc2c3ccccc3n(Cc3ccc(Cl)cc3)c2cn1", "IC50": "15.1 µM"}
{"Molecule": "CCOC(=O)c1cc2c3ccccc3n(Cc3cc(OC)cc(OC)c3)c2cn1", "IC50": "> 100 µM"}
{"Molecule": "O=C(O)c1cc2c3ccccc3nc-2c[nH]1", "IC50": "70.5 µM"}
{"Molecule": "O=C(O)C1Cc2c([nH]c3ccccc23)CN1 (stereo unspecified)", "IC50": "> 50 µM"}
{"Molecule": "CCOC(=O)c1cc2c3ccccc3n(Cc3ccc(Cl)cc3)c2cn1", "IC50": "> 100 µM"}
{"Molecule": "COc1ccccc1Cn1c2ccccc2c2cc(C(=O)O)ncc21", "IC50": "8 µM"}
{"Molecule": "CCOC(=O)c1cc2c3ccccc3n(Cc3ccccc3)c2cn1", "IC50": "> 100 µM"}

---

# Experiment: Cytotoxicity against human Hep3B cells incubated for 48 hrs by MTT assay
# Assay type: functional, cell-based, Hep 3B2
pIC50: −log10 of the molar value.
Measured pIC50 of individual entries
Property label: pIC50

{"Line notation": "CCOC(=O)c1cc2c3ccccc3n(Cc3ccc(Cl)cc3)c2cn1", "Observed value": "< 4.00"}
{"Line notation": "OCc1cc2c3ccccc3nc-2c[nH]1", "Observed value": "< 4.00"}
{"Line notation": "O=C(O)c1cc2c3ccccc3nc-2c[nH]1", "Observed value": 4.12}
{"Line notation": "CCOC(=O)c1cc2c(cn1)[nH]c1ccccc12", "Observed value": "< 4.00"}
{"Line notation": "O=C(O)c1cc2c3ccccc3n(Cc3ccc(Cl)cc3)c2cn1", "Observed value": 5.92}
{"Line notation": "CCOC(=O)c1cc2c3ccccc3n(Cc3cc(OC)cc(OC)c3)c2cn1", "Observed value": "< 4.00"}

---

# Experiment: Cytotoxicity against human 2774 cells incubated for 48 hrs by MTT assay
# Type: functional, cell-based
pIC50: −log10 of the molar value.

{"Line notation": "CCOC(=O)c1cc2c3ccccc3n(Cc3ccccc3)c2cn1", "pIC50": 4.57}
{"Line notation": "CCOC(=O)c1cc2c3ccccc3n(Cc3cc(OC)cc(OC)c3)c2cn1", "pIC50": "< 4.00"}
{"Line notation": "CCOC(=O)c1cc2c3ccccc3n(Cc3cccnc3)c2cn1", "pIC50": "< 4.00"}
{"Line notation": "CCOC(=O)c1cc2c3ccccc3n(Cc3ccncc3)c2cn1", "pIC50": "< 4.00"}
{"Line notation": "CCOC(=O)c1cc2c3ccccc3n(Cc3ccc(F)cc3)c2cn1", "pIC50": "< 4.00"}
{"Line notation": "O=C(O)c1cc2c3ccccc3nc-2c[nH]1", "pIC50": "< 4.00"}
